Source: ChEMBL document CHEMBL3102812

# half-life per entry
# test-name: Half life in Swiss mouse at 2 mg/kg, iv by LC/MS analysis
# Format: ADME, organism-based
# Design: dose 2 mg/kg, route intravenous
# setup-conditions: in vivo
parameter: half-life

> print(dat)
                                        mol  parameter    val
1  O=C([C@@H](c1ccc(Cl)cc1)c1cccnc1)N1CCN(c2ccc(C(F)(F)F)cc2)CC1  half-life  5.9 h
2  FC(F)(F)c1ccc(N(c2cccnc2)C2CCN(c3ccc(C(F)(F)F)cn3)CC2)cc1  half-life  8.6 h

====

# test-system: Cytochrome P450 3A4 (Homo sapiens)
# Sequence (P08684 whole entry): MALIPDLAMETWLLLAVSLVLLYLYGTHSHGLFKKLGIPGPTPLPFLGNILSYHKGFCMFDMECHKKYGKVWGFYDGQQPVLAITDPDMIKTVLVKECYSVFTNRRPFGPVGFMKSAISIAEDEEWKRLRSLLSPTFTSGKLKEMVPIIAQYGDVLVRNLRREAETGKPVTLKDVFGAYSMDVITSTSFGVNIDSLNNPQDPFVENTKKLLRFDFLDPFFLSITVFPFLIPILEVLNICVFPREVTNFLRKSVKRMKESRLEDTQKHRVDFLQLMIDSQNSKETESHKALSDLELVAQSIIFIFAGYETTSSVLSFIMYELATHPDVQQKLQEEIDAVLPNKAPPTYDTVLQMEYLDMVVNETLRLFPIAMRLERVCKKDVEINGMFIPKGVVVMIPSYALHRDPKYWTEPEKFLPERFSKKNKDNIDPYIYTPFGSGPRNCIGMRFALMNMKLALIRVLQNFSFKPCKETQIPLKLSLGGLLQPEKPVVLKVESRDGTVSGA
pIC50: −log10 of the molar value.
TRUE means recorded pIC50 is 5 or above; FALSE means it is below 5.

> print(dat)
                                   molecule                         test.system  assigned.label
1  O=C(C(c1ccc(Cl)cc1)c1cccnc1)N1CCN(c2ccc(C(F)(F)F)nc2)CC1 (centres undefined)  Cytochrome P450 3A4 (Homo sapiens)           FALSE
2  O=C([C@H](c1ccc(Cl)cc1)c1cccnc1)N1CCN(c2ccc(C(F)(F)F)cc2)CC1  Cytochrome P450 3A4 (Homo sapiens)           FALSE
3  O=C(C(c1ccc(Cl)cc1)c1cccnc1)N1CCN(c2ccc(C(F)(F)F)cc2)CC1 (racemic)  Cytochrome P450 3A4 (Homo sapiens)           FALSE
4  FC(F)(F)c1ccc(N(c2cncnc2)C2CCN(c3ccc(C(F)(F)F)cn3)CC2)cc1  Cytochrome P450 3A4 (Homo sapiens)            TRUE
5  N#Cc1ccc(C(C(=O)N2CCN(c3ccc(C(F)(F)F)cc3)CC2)c2cccnc2)cc1 (centres undefined)  Cytochrome P450 3A4 (Homo sapiens)           FALSE
6  N#Cc1ccc(C(C(=O)N2CCN(c3ccc(C(F)(F)F)nc3)CC2)c2cccnc2)cc1 (centres undefined)  Cytochrome P450 3A4 (Homo sapiens)           FALSE
7  CS(=O)(=O)c1ccc(N2CCN(C(=O)C(c3ccc(C#N)cc3)c3cccnc3)CC2)cc1 (centres undefined)  Cytochrome P450 3A4 (Homo sapiens)           FALSE
8  O=C(C(c1ccc(Cl)cc1)c1cccnc1)N1CCN(c2ccc(C(F)(F)F)cn2)CC1 (centres undefined)  Cytochrome P450 3A4 (Homo sapiens)            TRUE
